Quick reference: IC50 of the listed items.
# ASSAYED TARGET: recombinant eIF4E (Homo sapiens (Human), UniProt P06730)
# Sequence (P06730 whole entry): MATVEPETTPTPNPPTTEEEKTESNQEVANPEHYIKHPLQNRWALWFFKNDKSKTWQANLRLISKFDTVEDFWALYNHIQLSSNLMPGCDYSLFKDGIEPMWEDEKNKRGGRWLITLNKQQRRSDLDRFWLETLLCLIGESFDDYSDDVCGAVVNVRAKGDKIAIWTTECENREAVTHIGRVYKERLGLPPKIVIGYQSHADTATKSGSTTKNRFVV
# EXPERIMENTAL DETAILS: Fluorescence polarization competition assay for eIF4E binding potency
# CONDITION PARAMETERS: fluorescence polarization competition, 75 nM recombinant eIF4E, 20 nM EDA-m7GDP-ATTO-550; IC50 class; read-out: elF4E FP

Cc1nc2cc(C(F)(F)F)cc(C#N)c2c(=O)n1CCOc1[nH]c(=O)c(Cl)cc1-c1ccnc2c(C(=O)O)csc12	> 1000 nM
Cc1cc(-c2cc(Cl)ccc2OCCn2c(C)nc3cc(Cl)cc(C#N)c3c2=O)c2scc(C(=O)O)c2n1	< 50 nM
Cc1nc2c(N3CCN(CC(F)F)C4CC43)ncc(C#N)c2c(=O)n1CCOc1ccc(Cl)cc1-c1ccnc2c(C(=O)O)csc12 (centres unmarked)	< 50 nM

Inquiry: Suppose we examine the compound Cc1cc(-c2cc(Cl)ccc2C#CCn2c(C)nc3c(C)nc(N4CCN(C)CC4)c(C#N)c3c2=O)c2scc(C(=O)O)c2n1 ; what IC50 value has been reported?
Reply text: < 50 nM

Inquiry: Same lookup for Cc1c(F)c2cc(C#N)cc(C#N)c2c(=O)n1CCOc1ccc(Cl)cc1-c1ccnc2c(C(=O)O)csc12 , please.
Reply text: < 50 nM

Inquiry: What about Cc1cc(-c2cc(Cl)ccc2OCCn2c(C)nc3cc(Cl)c(N4CC(S(C)(=O)=O)C4)c(C#N)c3c2=O)c2scc(C(=O)O)c2n1 ?
Reply text: < 50 nM

Inquiry: Same read-out for Cc1cc(-c2cc(Cl)ccc2OCCn2c(C)nc3cc(C(F)(F)F)c(C4CCOCC4)c(C#N)c3c2=O)c2scc(C(=O)O)c2n1 ?
Reply text: 50 to 1000 nM

Inquiry: Lookup Cc1nc2cc(OC(F)F)c(CN(C)C)c(C#N)c2c(=O)n1CCOc1ccc(Cl)cc1-c1ccnc2c(C(=O)O)csc12
Reply text: < 50 nM

Inquiry: Item: CCc1sc2c(-c3cc(Cl)ccc3OCCn3c(C)nc4cc(C(F)(F)F)cc(C#N)c4c3=O)ccnc2c1C(=O)O
Reply text: < 50 nM

Inquiry: Next compound up: Cc1nc2cnc(N3CC4(CN(CCOC(F)(F)F)C4)C3)c(C#N)c2c(=O)n1CC#Cc1ccc(Cl)cc1-c1ccnc2c(C(=O)O)csc12
Reply text: < 50 nM

Inquiry: And Cc1nc2cnc(N(C)C3CCN(C4CC(F)(F)C4)CC3)c(C#N)c2c(=O)n1CC#Cc1ccc(Cl)cc1-c1ccnc2c(C(=O)NS(=O)(=O)c3ccccn3)csc12 ?
Reply text: < 50 nM

Inquiry: And N#Cc1c(C(F)F)ccc2ncn(CCOc3ccc(Cl)cc3-c3cccc(C(=O)O)c3)c(=O)c12 ?
Reply text: 50 to 1000 nM

Inquiry: Now the compound Cc1nc2cc(C(F)(F)F)cc(C#N)c2c(=O)n1CCOc1ccc(Cl)cc1-c1ccnc2c(C(C)(C)O)csc12
Reply text: > 1000 nM

Inquiry: Do the same for Cc1cc(-c2cc(Cl)ccc2OCCn2c(C)nc3cc(C(F)(F)F)c(CN4CCN(C)CC4)c(C#N)c3c2=O)c2sc(C)c(C(=O)O)c2n1 please
Reply text: < 50 nM

Inquiry: Next entry: Cc1cc(-c2cc(Cl)ccc2OCCn2c(C)nc3cnc(-c4ccccc4Cl)c(C#N)c3c2=O)c2scc(C(=O)O)c2n1
Reply text: < 50 nM

Where do the numbers come from? From patent US11286268B1.
